- Target System: BTK (Homo sapiens, UniProt Q06187)
- Sequence (Q06187 402-655 limits assumed): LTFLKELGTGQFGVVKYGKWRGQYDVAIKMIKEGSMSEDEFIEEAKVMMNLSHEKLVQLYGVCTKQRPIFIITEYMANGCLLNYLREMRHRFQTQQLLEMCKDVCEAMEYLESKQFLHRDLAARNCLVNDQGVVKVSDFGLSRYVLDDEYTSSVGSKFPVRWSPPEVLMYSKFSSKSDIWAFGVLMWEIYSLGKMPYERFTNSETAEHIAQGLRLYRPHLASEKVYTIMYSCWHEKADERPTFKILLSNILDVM
- Experimental Protocol: biochemical
- Condition Description: read-out: BTK inhibition (%), 0.75 uM BTK, […] probe 3l, 15 min preincubation
Where a SMILES comes first, the peptide text is derived from it. [ ]: non-standard residue; d: D form. The star is where a group is joined. Benzoyl(4-tBu) = CC(C)(C)c1ccc(C(=O)*)cc1; Lys(Et2) = CCN(CC)CCCC[C@H](N)C(=O)O
Form field: inhibition at 10 µM (one value per entry).
Hi! Could you send only the number? It should be in %, unit omitted.

Answered examples (2):
Molecule	Target System	Measurement Unit	Result Value
Cn1c(=O)c2[nH]cnc2n(C)c1=O	BTK (Homo sapiens, UniProt Q06187)	%	-24.9
CC1(C)CC(=O)c2c(C(F)(F)F)nn(-c3ccc(C(N)=O)c(NC4CCC(O)CC4)c3)c2C1 (stereo not drawn)	BTK (Homo sapiens, UniProt Q06187)	%	-36.6

Read the next record carefully.
# inhibition at 10 µM lookup, item CCN(CC)CCCC[C@H](NC(=O)[C@H](CC(C)C)NC(=O)[C@H](C)NC(=O)[C@H](Cc1ccccc1)NC(=O)c1ccc(C(C)(C)C)cc1)C(=O)N[C@@H](CO)C(=O)OC [PCM-0215741] ({Benzoyl(4-tBu)}-FAL[Lys(Et2)]S-OMe) -16.2

----------
Form field: inhibition at 10 µM (one value per entry).
- Target System: BTK (Homo sapiens)
- Experimental Protocol: biochemical
- Condition Description: read-out: BTK inhibition (%), 0.75 uM BTK, […] probe 3l, 15 min preincubation
Hi! Could you send only the number? It should be in %, unit omitted.

Answered examples (4):
Item Smiles	inhibition at 10 µM (%)
O=c1c(O)c(-c2ccc(O)c(O)c2)oc2cc(O)cc(O)c12	48.2
Nc1nc(Cl)nc2c1ncn2[C@@H]1O[C@H](CO)[C@@H](O)[C@@H]1F	1.4
CCOCc1nc2c(N)nc3ccccc3c2n1CC(C)(C)O	15.2
Cc1ccc(Nc2cc(N[C@@H]3CCCC[C@@H]3N)nnc2C(N)=O)nc1C	79.3

Read the next record carefully.
Item `CC(C)(CO)n1cc(C(=O)c2cncc(NC(=O)Cc3ccc(Cl)cn3)c2)c2cnc(N)nc21` with BTK (Homo sapiens) - inhibition at 10 µM? 5.5

----------
- Target System: BTK (Homo sapiens, UniProt Q06187)
- Experimental Protocol: biochemical
- Condition Description: read-out: BTK inhibition (%), 0.75 uM BTK, […] probe 3l, 15 min preincubation
Attribute Measured: inhibition at 10 µM (%)
Hi! Could you send only the number? It should be in %, unit omitted.

Answered examples (7):
Compound	Target System	inhibition at 10 µM, %
CN(C)Cc1cccc(N=C(c2ccccc2)c2c(O)[nH]c3cc(C(=O)N(C)C)ccc23)c1	BTK (Homo sapiens, UniProt Q06187)	1.4
COc1ccc(-c2cc3c(C)nc(N)nc3n(C3CCC(OCCO)CC3)c2=O)cn1 (centres unmarked)	BTK (Homo sapiens, UniProt Q06187)	-9.7
COc1ccc(F)c(F)c1C(=O)c1cnc(NC2CCN(S(C)(=O)=O)CC2)nc1N	BTK (Homo sapiens, UniProt Q06187)	-9.7
CNCC[C@@H](Oc1ccccc1C)c1ccccc1	BTK (Homo sapiens, UniProt Q06187)	11.7
CC1(C)CC[C@]2(C(=O)O)CC[C@]3(C)C(=CC[C@@H]4[C@@]5(C)CC[C@H](O)C(C)(C)[C@@H]5CC[C@]43C)[C@@H]2C1	BTK (Homo sapiens, UniProt Q06187)	27.2
CC1(C)O[C@H]1COc1c2ccoc2cc2oc(=O)ccc12	BTK (Homo sapiens, UniProt Q06187)	0.8
COc1ccc(C[C@@H]2c3cc(Oc4cc(C[C@@H]5c6cc(O)c(OC)cc6CCN5C)ccc4O)c(OC)cc3CCN2C)cc1	BTK (Homo sapiens, UniProt Q06187)	16.2

Read the next record carefully.
# inhibition at 10 µM lookup, item `N[C@@H]1CN(c2c(F)cc3c(=O)c(C(=O)O)cn([C@@H]4C[C@@H]4F)c3c2Cl)CC12CC2` -6.8

----------
- Target System: BTK (Homo sapiens, UniProt Q06187)
- Experimental Protocol: biochemical
- Condition Description: read-out: BTK inhibition (%), 0.75 uM BTK, […] probe 3l, 15 min preincubation
Form field: inhibition at 10 µM (one value per entry).
Hi! Could you send only the number? It should be in %, unit omitted.

Answered examples (3):
Item Smiles	Target System	Result Value
COc1cc2ncnc(Nc3cccc(Cl)c3)c2cc1OC	BTK (Homo sapiens, UniProt Q06187)	21.4
C[C@@H]1O[C@@H](O[C@@H]2[C@@H](O)[C@H](OCCc3ccc(O)c(O)c3)O[C@H](CO)[C@H]2OC(=O)/C=C/c2ccc(O)c(O)c2)[C@H](O)[C@H](O)[C@H]1O	BTK (Homo sapiens, UniProt Q06187)	15.9
O=C(NOCCO)c1ccc2cncn2c1Nc1ccc(I)cc1F	BTK (Homo sapiens, UniProt Q06187)	28.3

Item `CCCCCCCCCCCCCCCCCCCCCCCCCCCCO` with BTK (Homo sapiens, UniProt Q06187) - inhibition at 10 µM? -11.1

Same thing, different compound: `CC(C)(C)c1[nH]cnc1/C=c1\[nH]c(=O)/c(=C/c2ccccc2)[nH]c1=O` -2.1

----------
Form field: inhibition at 10 µM (one value per entry).
- Target System: UniProt Q06187
- Experimental Protocol: biochemical
- Condition Description: read-out: BTK inhibition (%), 0.75 uM BTK, […] probe 3l, 15 min preincubation
Hi! Could you send only the number? It should be in %, unit omitted.

Answered examples (3):
Item Smiles	Result Value
CN(C)C(=O)C(CCN1CCC(O)(c2ccc(Cl)cc2)CC1)(c1ccccc1)c1ccccc1	18.7
CCOC(=O)C1=C(COCCN)NC(C)=C(C(=O)OC)[C@@H]1c1ccccc1Cl	-11.7
COc1cc2c(cc1O)[C@@H](Cc1ccc(O)c(Oc3ccc(C[C@@H]4c5cc(OC)c(OC)cc5CCN4C)cc3)c1)N(C)CC2	10.8

# inhibition at 10 µM lookup, item `CC(=O)Oc1cc(C(F)(F)F)ccc1C(=O)O` -8.6

Same thing, different molecule: `CC1(C)CC[C@]2(NC(=O)C(C)(F)F)CC[C@]3(C)[C@H](C(=O)C=C4[C@@]5(C)C=C(C#N)C(=O)C(C)(C)[C@@H]5CC[C@]43C)[C@@H]2C1` -10

Same thing, different molecule: `CCN(CC)CCOC(=O)c1ccc(N)cc1Cl` -1.6

Same thing, different molecule: `CC(C)n1cnc2c(NCCc3ccc(O)cc3)nc(-c3csc4ccccc34)nc21` 34.2

Same thing, different molecule: `C[C@@H](O)[C@H]1C(=O)N2C(C(=O)O)=C(S[C@@H]3CN[C@H](C(=O)Nc4cccc(C(=O)O)c4)C3)[C@H](C)[C@H]12` 0.8

----------
- Target System: UniProtKB Q06187
- Experimental Protocol: biochemical
- Condition Description: read-out: BTK inhibition (%), 0.75 uM BTK, […] probe 3l, 15 min preincubation
Attribute Measured: inhibition at 10 µM (%)
Hi! Could you send only the number? It should be in %, unit omitted.

Item Smiles	Measurement Unit	Result Value
CC(C)=CCC/C(C)=C/CC/C(C)=C/CC/C(C)=C/CC1=C(C)C(=O)c2ccccc2C1=O	%	2.3

# inhibition at 10 µM lookup, item `CC[C@H]1OC(=O)[C@H](C)[C@@H](O[C@H]2C[C@@](C)(OC)[C@@H](O)[C@H](C)O2)[C@H](C)[C@@H](O[C@@H]2O[C@H](C)C[C@H](N(C)C)[C@H]2O)[C@](C)(O)C[C@@H](C)/C(=N\OCOCCOC)[C@H](C)[C@@H](O)[C@]1(C)O` 3.9

Same thing, different compound: `O=C(O)CNC(=O)c1nc(Cl)c2ccccc2c1O` 10.8

----------
- Target System: BTK (Homo sapiens, UniProt Q06187)
- Experimental Protocol: biochemical
- Condition Description: read-out: BTK inhibition (%), 0.75 uM BTK, […] probe 3l, 15 min preincubation
Attribute Measured: inhibition at 10 µM (%)
Hi! Could you send only the number? It should be in %, unit omitted.

Compound	inhibition at 10 µM, %
CN1CCc2c(c3ccccc3n2Cc2ccc(C(=O)NO)cc2)C1 [PCM-0095487]	0.8
COc1cc(N2CCC(N3CCN(C)CC3)CC2)ccc1Nc1ncc(Cl)c(Nc2ccccc2S(=O)(=O)C(C)C)n1 [PCM-0094890]	88.5
Cc1ccc(C(=O)N(CCCN)[C@@H](c2nc3cc(Cl)ccc3c(=O)n2Cc2ccccc2)C(C)C)cc1 [PCM-0095123]	11.7

Item COC(=O)[C@H](O)[C@@H](NC(=O)c1ccccc1)c1ccccc1 [PCM-0216282] with BTK (Homo sapiens, UniProt Q06187) - inhibition at 10 µM? -5.4

Same thing, different compound: O=C(Oc1cccc(F)c1OC(=O)c1cccc(O)c1)c1cccc(O)c1 [PCM-0215618] -5.4

Same thing, different compound: COc1cc2c(Oc3ccc4[nH]c(C)cc4c3F)ncnc2cc1OCCCN1CCCC1 [PCM-0094913] 33.8

Recorded values, source paper PMC8041284.
